As shown below, each of these molecules has a reported CC50 at 7 days value.
Assay: In vitro cytotoxicity, MTT cell viability assay in HepG2 cells
Format: cell-based
Conditions: human, Cytotoxicity CC50
Method: To evaluate antiviral selectivity, the cytotoxic activity of each compound was determined using a standard cell viability assay performed on the parental HepG2 cell line. Cell viability was determined by measuring the conversion of 3-(4,5-dimethylthiazol-2-yl)-2,5-diphenyltetrazolium bromide (MTT) to the insoluble formazan salt crystal that occurs in live cells. […] All absorbance values were converted to a percentage of the signal obtained from the vehicle treated controls. […]
Assay metric: CC50 at 7 days

>>> print(df.to_string())
                                   molecule    measured
0  Cc1cc(NC(=O)c2ccc(F)c(C(F)(F)C(=O)N3CCC(N4CCOCC4)CC3)c2)ccc1F [Example 267]  5 to 30 µM
1  Cc1cc(NC(=O)c2cc(C(F)(F)C(=O)NC(C)(C)C)cs2)ccc1F [Example 157]  5 to 30 µM
2  O=C(Nc1ccnc(Cl)c1)c1ccc(F)c(C(F)(F)C(=O)N2[C@@H]3CC[C@H]2C[C@H](O)C3)c1 [Example 197]      < 5 µM
3  Cc1cc(NC(=O)c2nn(C)cc2C(F)(F)C(=O)NC(C)(C)C)ccc1F [Example 166]     > 30 µM
4  O=C(Nc1ccc(F)c(F)c1)c1ccc(Cl)c(C(F)(F)C(=O)N2CCC(O)CC2)c1 [Example 42]  5 to 30 µM
5  O=C(Nc1ccc(F)c(F)c1)c1ccc(F)c(C(F)(F)C(=O)Nc2ccc(F)cn2)c1 [Example 22]     > 30 µM
6  Cc1cc(NC(=O)c2ccc(F)c(C(F)(F)C(=O)N3CCC(C(N)=O)CC3)c2)ccc1F [Example 164]     > 30 µM
7  Cc1cc(NC(=O)c2ccc(F)c(C(F)(F)C(=O)N3CCC(O)C(C)(C)C3)c2)ccc1F (centres unmarked) [Example 72]  5 to 30 µM

###

Experiment: In vitro cytotoxicity, MTT cell viability assay in HepG2 cells
Type: cell-based
Details: human, Cytotoxicity CC50
Experimental: To evaluate antiviral selectivity, the cytotoxic activity of each compound was determined using a standard cell viability assay performed on the parental HepG2 cell line. Cell viability was determined by measuring the conversion of 3-(4,5-dimethylthiazol-2-yl)-2,5-diphenyltetrazolium bromide (MTT) to the insoluble formazan salt crystal that occurs in live cells. […] All absorbance values were converted to a percentage of the signal obtained from the vehicle treated controls. […]
As shown below, each of these molecules has a reported CC50 at 7 days value.
Assay metric: CC50 at 7 days

>>> df
                                    molecule    measured
 0  CC(=O)N1C[C@@H](C)N(C(=O)C(F)(F)c2cc(C(=O)Nc3ccc(F)c(C)c3)ccc2F)[C@@H](C)C1  5 to 30 µM
 1  Cc1cc(NC(=O)c2ccnc(C(F)(F)C(=O)N3C4CC[C@@H]3C[C@@H](C(=O)O)C4)c2)ccc1F  5 to 30 µM
 2  O=C(Nc1ccc(F)c(F)c1)c1ccc(F)c(C(O)C(=O)N2CCC(O)CC2)c1 (stereo not drawn)     > 30 µM
 3  CC(=O)Nc1nc2c(s1)CN(C(=O)C(F)(F)c1cc(C(=O)Nc3ccc(F)c(C)c3)ccc1F)CC2  5 to 30 µM
 4  O=C(Nc1ccc(F)c(Cl)c1)c1ccc(F)c(C(F)(F)C(=O)N2CCC(O)CC2)c1  5 to 30 µM
 5  Cc1cc(NC(=O)c2ccc(F)c(C(F)(F)C(=O)N3[C@@H]4CC[C@H]3CC(O)(CC#N)C4)c2)ccc1F (stereo partly drawn)      < 5 µM
 6  O=C(Nc1ccc(F)c(F)c1)c1ccc(F)c(C(F)(F)C(=O)NCc2ccc(O)cc2)c1  5 to 30 µM
 7  Cc1cc(NC(=O)c2ccc(F)c(C(F)(F)C(=O)N3CCN4C(=O)NCC4C3)c2)ccc1F (stereo not drawn)     > 30 µM
 8  Cc1cc(NC(=O)c2ccn(C)c2C(F)(F)C(=O)N2CCC(O)CC2)ccc1F     > 30 µM
 9  Cc1cc(NC(=O)c2cccc(C(F)(F)C(=O)N3CCC(O)CC3)c2)ccc1F  5 to 30 µM
10  Cc1cc(NC(=O)c2ccc(F)c(C(F)(F)C(=O)N3CCOC[C@H]3C(=O)O)c2)ccc1F     > 30 µM
11  O=C(Nc1ccc(F)c(F)c1)c1ccc(F)c(C(F)(F)C(=O)NC[C@@H](O)CO)c1     > 30 µM
12  CC(=O)NC1CCN(C(=O)C(F)(F)c2cc(C(=O)Nc3ccc(F)c(C)c3)ccc2N)CC1(C)C (stereo not drawn)     > 30 µM
13  O=C(Nc1ccc(F)c(Cl)c1)c1ccc(Cl)c(C(F)(F)C(=O)N2CCC(O)CC2)c1  5 to 30 µM
14  Cc1cc(NC(=O)c2ccc(F)c(C(F)(F)C(=O)N3C4CC[C@@H]3C[C@H](O)C4)c2)cc(F)c1F  5 to 30 µM
